Cited source: the supplement of paper PMC12855868

B1: library; numbered along this chain (parent)
chain: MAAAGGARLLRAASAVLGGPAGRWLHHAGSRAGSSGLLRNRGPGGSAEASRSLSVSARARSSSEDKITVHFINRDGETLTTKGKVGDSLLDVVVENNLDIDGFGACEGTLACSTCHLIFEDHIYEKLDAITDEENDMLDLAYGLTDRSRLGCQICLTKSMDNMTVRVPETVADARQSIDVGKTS

variants of: B1; experiment: scaled log2 fold change in cell abundance, elesclomol vs control (0 = silent mean, 1 = nonsense mean) (scaled log2 ratio); higher = higher viability under elesclomol (loss of FDX1 cuproptosis function); conditions: with HEK293T FDX1 KO; elesclomol 40 nM; glucose 10 mM; 11 days;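 note: variant abundance is its share of total variant reads in each endpoint sample, from next-generation sequencing of the integrated ORF PCR-amplified out of genomic DNA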
Grouping by measured scaled log2 fold change is done with the following cut points: low: < -0.2; medium: ≥ -0.2 and < 0.3; high: ≥ 0.3

Completed entries (count: 5):
>>> print(df.to_string())
   variant_id  group_label
0       I100G       medium
1       G104V         high
2       G104Y         high
3       N162I          low
4       G143H          low

Please report the category associated with S63Y , nothing else.
high

Please report the category associated with T164L , nothing else.
low

Please report the category associated with K82G , nothing else.
medium

Please report the category associated with S35F , nothing else.
high

Please report the category associated with P20R , nothing else.
high

Please report the category associated with P168E , nothing else.
medium

Please report the category associated with F103D , nothing else.
high
